A short record of IC50 observed with UniProtKB P20309 follows.

Example compounds with recorded IC50:
C[C@@H](NC(=O)c1ccc(CNC[C@H](O)c2ccc(O)c3[nH]c(=O)ccc23)cc1)C(=O)N1CC=C(c2cccc([C@](O)(C(=O)OCC3CCN(Cc4ccccc4)CC3)c3ccccc3)c2)CC1 : 0.3 to 3 nM
O=C(NCC(=O)N1CC=C(c2cccc([C@](O)(C(=O)OCC3CCN(Cc4ccccc4)CC3)c3ccccc3)c2)CC1)c1ccc(CNC[C@H](O)c2ccc(O)c3[nH]c(=O)ccc23)cc1 : 0.3 to 3 nM

Let us move to another entry and its IC50.
Lab note: need IC50 with UniProtKB P20309 for entry COc1cc(C(=O)N2CCC=C(c3cccc([C@](O)(C(=O)OCC4CCN(Cc5ccccc5)CC4)c4ccccc4)c3)C2)ccc1CNC[C@H](O)c1ccc(O)c2[nH]c(=O)ccc12 , please look it up. 0.3 to 3 nM

====

A short record of pIC50 observed with UniProtKB P20309 follows.
pIC50: −log10 of the molar value.

Endpoint output: pIC50 of O=C(c1ccc(CNC[C@H](O)c2ccc(O)c3[nH]c(=O)ccc23)cc1)N1CCC(c2cccc([C@](O)(C(=O)OCC3CCN(Cc4ccccc4)CC3)c3ccccc3)c2)CC1 . Value? 8.52 to 9.52

And then O=C(NCc1ccc(-c2cccc([C@](O)(C(=O)OCC3CCN(Cc4ccccc4)CC3)c3ccccc3)c2)s1)c1cccc(CNC[C@H](O)c2ccc(O)c3[nH]c(=O)ccc23)c1 , what is it? 8.52 to 9.52

And then COc1cc(C(=O)NCC(=O)N2CC=C(c3cccc([C@](O)(C(=O)OCC4CCN(Cc5ccccc5)CC4)c4ccccc4)c3)CC2)ccc1CNC[C@H](O)c1ccc(O)c2[nH]c(=O)ccc12 , what is it? 8.52 to 9.52

And then O=C(NCc1cc(-c2cccc([C@](O)(C(=O)OCC3CCN(Cc4ccccc4)CC3)c3ccccc3)c2)cs1)c1ccc(CNC[C@H](O)c2ccc(O)c3[nH]c(=O)ccc23)cc1 , what is it? 8.52 to 9.52

And then O=C(NCc1ccc(-c2cccc([C@](O)(C(=O)OCC3CCN(Cc4ccccc4)CC3)c3ccccc3)c2)s1)c1ccc(CNC[C@H](O)c2ccc(O)c3[nH]c(=O)ccc23)c(C(F)(F)F)c1 , what is it? < 8.52

And then COc1cc(CNC[C@H](O)c2ccc(O)c3[nH]c(=O)ccc23)ccc1C(=O)N1CC=C(c2cccc([C@](O)(C(=O)OCC3CCN(Cc4ccccc4)CC3)c3ccccc3)c2)CC1 , what is it? > 9.52

====

Below, each entry is listed with its recorded IC50.
# target-of-assay: Human M3 receptor (Homo sapiens, UniProt P20309)
# Sequence (P20309 whole entry): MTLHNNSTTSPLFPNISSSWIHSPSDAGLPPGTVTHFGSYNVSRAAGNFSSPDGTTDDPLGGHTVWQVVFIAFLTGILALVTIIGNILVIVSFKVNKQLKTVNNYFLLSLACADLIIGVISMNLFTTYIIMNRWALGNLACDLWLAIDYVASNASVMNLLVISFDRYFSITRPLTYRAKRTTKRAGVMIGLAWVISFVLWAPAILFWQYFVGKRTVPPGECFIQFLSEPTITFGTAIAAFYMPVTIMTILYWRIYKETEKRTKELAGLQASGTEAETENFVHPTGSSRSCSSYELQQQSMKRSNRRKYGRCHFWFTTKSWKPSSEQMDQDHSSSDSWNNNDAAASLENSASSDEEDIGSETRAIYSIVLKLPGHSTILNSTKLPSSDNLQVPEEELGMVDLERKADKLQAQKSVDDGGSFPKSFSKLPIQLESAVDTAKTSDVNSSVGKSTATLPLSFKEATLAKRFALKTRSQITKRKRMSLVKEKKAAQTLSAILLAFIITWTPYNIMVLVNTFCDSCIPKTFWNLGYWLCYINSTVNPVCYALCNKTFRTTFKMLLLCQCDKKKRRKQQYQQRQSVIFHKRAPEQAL

Example compounds with recorded IC50:
COc1cc(C(=O)NCc2cncc(-c3cccc([C@](O)(C(=O)OCC4CCN(Cc5ccccc5)CC4)c4ccccc4)c3)n2)ccc1CNC[C@H](O)c1ccc(O)c2[nH]c(=O)ccc12 : 0.3 to 3 nM
COc1cc(C(=O)NCc2cnc(-c3cccc([C@](O)(C(=O)OCC4CCN(Cc5ccccc5)CC4)c4ccccc4)c3)cn2)ccc1CNC[C@H](O)c1ccc(O)c2[nH]c(=O)ccc12 : 0.3 to 3 nM

Let us move to another entry and its IC50.
Endpoint output: IC50 of O=C(NCC(=O)N1CCC(c2cccc([C@](O)(C(=O)OCC3CCN(Cc4ccccc4)CC3)c3ccccc3)c2)CC1)c1ccc(CCNC[C@H](O)c2ccc(O)c3[nH]c(=O)ccc23)cc1 . Value? 0.3 to 3 nM

====

# target-of-assay: Human β2 adrenoceptor (Homo sapiens, UniProt P07550)
# Sequence (P07550 whole entry): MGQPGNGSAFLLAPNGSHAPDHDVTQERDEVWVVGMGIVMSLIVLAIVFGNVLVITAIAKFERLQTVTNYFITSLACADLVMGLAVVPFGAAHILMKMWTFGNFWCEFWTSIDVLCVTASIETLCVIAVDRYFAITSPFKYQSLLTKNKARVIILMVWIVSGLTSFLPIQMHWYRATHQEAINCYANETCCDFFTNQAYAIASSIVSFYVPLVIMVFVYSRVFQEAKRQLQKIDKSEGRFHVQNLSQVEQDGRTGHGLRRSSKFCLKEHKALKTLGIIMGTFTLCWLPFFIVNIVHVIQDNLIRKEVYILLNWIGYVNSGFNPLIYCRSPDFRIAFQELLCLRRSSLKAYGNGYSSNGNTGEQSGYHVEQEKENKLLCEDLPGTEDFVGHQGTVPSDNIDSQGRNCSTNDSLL
pIC50: −log10 of the molar value.
quantity-measured: pIC50

Example compounds with recorded pIC50:
COc1cc(C(=O)NCc2ccc(-c3cccc([C@](O)(C(=O)OCC4CCN(Cc5ccccc5)CC4)c4ccccc4)c3)s2)cc(F)c1CNC[C@H](O)c1ccc(O)c2[nH]c(=O)ccc12 : 8.52 to 9.52
COc1cc(C(=O)NCc2ccc(-c3ccc([C@](O)(C(=O)OCC4CCN(Cc5ccccc5)CC4)c4ccccc4)cc3)s2)ccc1CNC[C@H](O)c1ccc(O)c2[nH]c(=O)ccc12 [Compound 15A] : > 9.52
O=C(NCc1cnc(-c2cccc([C@](O)(C(=O)OCC3CCN(Cc4ccccc4)CC3)c3ccccc3)c2)cn1)c1ccc(CNC[C@H](O)c2ccc(O)c3[nH]c(=O)ccc23)cc1 : 8.52 to 9.52
O=C(NCc1ccc(-c2cccc([C@](O)(C(=O)OCC3CCN(Cc4ccccc4)CC3)c3ccccc3)c2)s1)c1ccc(CCNC[C@H](O)c2ccc(O)c3[nH]c(=O)ccc23)cc1 : 8.52 to 9.52
O=C(NCCCNC[C@H](O)c1ccc(O)c2[nH]c(=O)ccc12)c1cncc(-c2cccc([C@](O)(C(=O)OCC3CCN(Cc4ccccc4)CC3)c3ccccc3)c2)n1 : 8.52 to 9.52
O=C(NCc1ccc(-c2cccc([C@](O)(C(=O)OC[C@H]3CCCN(Cc4ccccc4)C3)c3ccccc3)c2)s1)c1ccc(CNC[C@H](O)c2ccc(O)c3[nH]c(=O)ccc23)cc1 : 8.52 to 9.52
Cn1nc(C(=O)NCc2ccc(CNC[C@H](O)c3ccc(O)c4[nH]c(=O)ccc34)cc2)cc1-c1cccc([C@](O)(C(=O)OCC2CCN(Cc3ccccc3)CC2)c2ccccc2)c1 : 8.52 to 9.52
O=C(c1ccc2c(c1)CC(NC[C@H](O)c1ccc(O)c3[nH]c(=O)ccc13)C2)N1CCC(c2cccc([C@](O)(C(=O)OCC3CCN(Cc4ccccc4)CC3)c3ccccc3)c2)CC1 (some centres unmarked) : 8.52 to 9.52
COc1c(CNC[C@H](O)c2ccc(O)c3[nH]c(=O)ccc23)ccc(C(=O)N2CC=C(c3cccc([C@](O)(C(=O)OCC4CCN(Cc5ccccc5)CC4)c4ccccc4)c3)CC2)c1F : 8.52 to 9.52
COc1cc(C(=O)NCc2nn(C)cc2-c2cccc([C@](O)(C(=O)OCC3CCN(Cc4ccccc4)CC3)c3ccccc3)c2)ccc1CNC[C@H](O)c1ccc(O)c2[nH]c(=O)ccc12 : 8.52 to 9.52

Let us move to another entry and its pIC50.
Endpoint output: pIC50 of COc1cc(C(=O)NCc2ccc(-c3cccc([C@](O)(C(=O)OCC4CCN(Cc5ccccc5)CC4)c4ccccc4)c3)nn2)ccc1CNC[C@H](O)c1ccc(O)c2[nH]c(=O)ccc12 . Value? > 9.52

====

A short record of pIC50 observed with Human M3 receptor (Homo sapiens, UniProt P20309) follows.
pIC50: −log10 of the molar value.

O=C(c1ccc(-c2cccc([C@](O)(C(=O)OCC3CCN(Cc4ccccc4)CC3)c3ccccc3)c2)nc1)N1CCC(CNC[C@H](O)c2ccc(O)c3[nH]c(=O)ccc23)CC1 [Compound 6D] : 8.52 to 9.52
O=C(NCc1ccc(-c2cccc([C@](O)(C(=O)OCC3CCN(Cc4ccccc4)CC3)c3ccccc3)c2)s1)c1ccc(CNC[C@H](O)c2ccc(O)c3[nH]c(=O)ccc23)cc1Cl [Compound 1] : 8.52 to 9.52
COc1ccc(CN2CCC(COC(=O)[C@](O)(c3ccccc3)c3cccc(-c4ccc(CNC(=O)c5ccc(CNC[C@H](O)c6ccc(O)c7[nH]c(=O)ccc67)cc5)s4)c3)CC2)cc1 [Compound 2A] : 8.52 to 9.52
O=C(NCc1ccc(CCNC[C@H](O)c2ccc(O)c3[nH]c(=O)ccc23)cc1)c1ccc(-c2ccc([C@](O)(C(=O)OCC3CCN(Cc4ccccc4)CC3)c3ccccc3)cc2)s1 [Compound 16] : < 8.52
COc1cc(C(=O)NCc2ccc(-c3cccc([C@](O)(C(=O)OCC4CCN(Cc5ccccc5)CC4)c4ccccc4)c3)nn2)ccc1CNC[C@H](O)c1ccc(O)c2[nH]c(=O)ccc12 [Compound 4C] : > 9.52

Endpoint output: pIC50 of O=C(c1ccc(CCNC[C@H](O)c2ccc(O)c3[nH]c(=O)ccc23)cc1)N1CC=C(c2cccc([C@](O)(C(=O)OCC3CCN(Cc4ccccc4)CC3)c3ccccc3)c2)C1 [Compound 3F] . Value? 8.52 to 9.52

And then O=C(NCc1cnc(-c2cccc([C@](O)(C(=O)OCC3CCN(Cc4ccccc4)CC3)c3ccccc3)c2)s1)c1ccc(CNC[C@H](O)c2ccc(O)c3[nH]c(=O)ccc23)cc1 [Compound 5B] , what is it? 8.52 to 9.52

And then O=C(c1ccnc(-c2cccc([C@](O)(C(=O)OCC3CCN(Cc4ccccc4)CC3)c3ccccc3)c2)c1)N1CCC(CNC[C@H](O)c2ccc(O)c3[nH]c(=O)ccc23)CC1 [Compound 6] , what is it? 8.52 to 9.52

And then O=C(c1ccc(CNC[C@H](O)c2ccc(O)c3[nH]c(=O)ccc23)cc1)N1CCC=C(c2cccc([C@](O)(C(=O)OCC3CCN(Cc4ccccc4)CC3)c3ccccc3)c2)C1 [Compound 3I] , what is it? 8.52 to 9.52

And then O=C(c1ccc(CCNC[C@H](O)c2ccc(O)c3[nH]c(=O)ccc23)cc1)N1CCC(c2cccc([C@](O)(C(=O)OCC3CCN(Cc4ccccc4)CC3)c3ccccc3)c2)CC1 [Compound 7C] , what is it? 8.52 to 9.52
